Consider the following compounds and their measured MIC readings.
test system: Micrococcus luteus; assay: Antibacterial activity against Micrococcus luteus FDA16 after 18 hrs by serial agar dilution method; type: functional

{"smiles-input": "CCCCCCCCCCCCCCCC(=O)OC[C@H](NC(=O)[C@@H](N)[C@H](O[C@@H]1O[C@H](CN)[C@@H](O)[C@H]1O)[C@H]1O[C@@H](n2ccc(=O)[nH]c2=O)[C@H](O)[C@@H]1O)C(=O)O", "tgt": "Micrococcus luteus", "MIC": "50 mg/L"}
{"smiles-input": "NC[C@H]1O[C@@H](O[C@H]([C@H]2O[C@@H](n3ccc(=O)[nH]c3=O)[C@H](O)[C@@H]2O)[C@@H]2NC(=O)[C@H](COC(=O)c3ccc(-c4ccccc4)cc3)NC2=O)[C@H](O)[C@@H]1O", "tgt": "Micrococcus luteus", "MIC": "> 100 mg/L"}
{"smiles-input": "NC[C@H]1O[C@@H](O[C@H]([C@H]2O[C@@H](n3ccc(=O)[nH]c3=O)[C@H](O)[C@@H]2O)[C@H](N)C(=O)N[C@@H](CO)C(=O)O)[C@H](O)[C@@H]1O", "tgt": "Micrococcus luteus", "MIC": "> 100 mg/L"}
{"smiles-input": "NC[C@H]1O[C@@H](O[C@H]([C@H]2O[C@@H](n3ccc(=O)[nH]c3=O)[C@H](O)[C@@H]2O)[C@H](N)C(=O)N[C@@H](COC(=O)c2ccc(-c3ccccc3)cc2)C(=O)O)[C@H](O)[C@@H]1O", "tgt": "Micrococcus luteus", "MIC": "> 100 mg/L"}

----------
system: Enterococcus faecalis; experiment: Antibacterial activity against Enterococcus faecalis NCTC-12201 after 18 hrs by serial agar dilution method; type: functional

{"smiles-input": "NC[C@H]1O[C@@H](O[C@H]([C@H]2O[C@@H](n3ccc(=O)[nH]c3=O)[C@H](O)[C@@H]2O)[C@H](N)C(=O)N[C@H](COC(=O)c2ccc(-c3ccccc3)cc2)C(=O)O)[C@H](O)[C@@H]1O", "tgt": "Enterococcus faecalis", "MIC": "> 100 µg/mL"}
{"smiles-input": "NC[C@H]1O[C@@H](O[C@H]([C@H]2O[C@@H](n3ccc(=O)[nH]c3=O)[C@H](O)[C@@H]2O)[C@@H]2NC(=O)[C@H](COC(=O)c3ccc(-c4ccccc4)cc3)NC2=O)[C@H](O)[C@@H]1O", "tgt": "Enterococcus faecalis", "MIC": "> 100 µg/mL"}
{"smiles-input": "CCCCCCCCCCCCCCCC(=O)OC[C@@H](NC(=O)[C@@H](N)[C@H](O[C@@H]1O[C@H](CN)[C@@H](O)[C@H]1O)[C@H]1O[C@@H](n2ccc(=O)[nH]c2=O)[C@H](O)[C@@H]1O)C(=O)O", "tgt": "Enterococcus faecalis", "MIC": "50 µg/mL"}
{"smiles-input": "CCCCCCCCCCCCCCCC(=O)OC[C@H](NC(=O)[C@@H](N)[C@H](O[C@@H]1O[C@H](CN)[C@@H](O)[C@H]1O)[C@H]1O[C@@H](n2ccc(=O)[nH]c2=O)[C@H](O)[C@@H]1O)C(=O)O", "tgt": "Enterococcus faecalis", "MIC": "50 µg/mL"}
{"smiles-input": "NC[C@H]1O[C@@H](O[C@H]([C@H]2O[C@@H](n3ccc(=O)[nH]c3=O)[C@H](O)[C@@H]2O)[C@@H]2NC(=O)[C@@H](COC(=O)c3ccc(-c4ccccc4)cc3)NC2=O)[C@H](O)[C@@H]1O", "tgt": "Enterococcus faecalis", "MIC": "> 100 µg/mL"}
{"smiles-input": "NC[C@H]1O[C@@H](O[C@H]([C@H]2O[C@@H](n3ccc(=O)[nH]c3=O)[C@H](O)[C@@H]2O)[C@H](N)C(=O)N[C@@H](CO)C(=O)O)[C@H](O)[C@@H]1O", "tgt": "Enterococcus faecalis", "MIC": "> 100 µg/mL"}
{"smiles-input": "CCCCCCCCCCCCCCCC(=O)OC[C@@H]1NC(=O)[C@H]([C@H](O[C@@H]2O[C@H](CN)[C@@H](O)[C@H]2O)[C@H]2O[C@@H](n3ccc(=O)[nH]c3=O)[C@H](O)[C@@H]2O)NC1=O", "tgt": "Enterococcus faecalis", "MIC": "100 µg/mL"}
{"smiles-input": "NC[C@H]1O[C@@H](O[C@H]([C@H]2O[C@@H](n3ccc(=O)[nH]c3=O)[C@H](O)[C@@H]2O)[C@H](N)C(=O)N[C@@H](COC(=O)c2ccc(-c3ccccc3)cc2)C(=O)O)[C@H](O)[C@@H]1O", "tgt": "Enterococcus faecalis", "MIC": "> 100 µg/mL"}
